SYSTEM_NAME: UniProtKB Q12809
Sequence (Q12809 whole entry): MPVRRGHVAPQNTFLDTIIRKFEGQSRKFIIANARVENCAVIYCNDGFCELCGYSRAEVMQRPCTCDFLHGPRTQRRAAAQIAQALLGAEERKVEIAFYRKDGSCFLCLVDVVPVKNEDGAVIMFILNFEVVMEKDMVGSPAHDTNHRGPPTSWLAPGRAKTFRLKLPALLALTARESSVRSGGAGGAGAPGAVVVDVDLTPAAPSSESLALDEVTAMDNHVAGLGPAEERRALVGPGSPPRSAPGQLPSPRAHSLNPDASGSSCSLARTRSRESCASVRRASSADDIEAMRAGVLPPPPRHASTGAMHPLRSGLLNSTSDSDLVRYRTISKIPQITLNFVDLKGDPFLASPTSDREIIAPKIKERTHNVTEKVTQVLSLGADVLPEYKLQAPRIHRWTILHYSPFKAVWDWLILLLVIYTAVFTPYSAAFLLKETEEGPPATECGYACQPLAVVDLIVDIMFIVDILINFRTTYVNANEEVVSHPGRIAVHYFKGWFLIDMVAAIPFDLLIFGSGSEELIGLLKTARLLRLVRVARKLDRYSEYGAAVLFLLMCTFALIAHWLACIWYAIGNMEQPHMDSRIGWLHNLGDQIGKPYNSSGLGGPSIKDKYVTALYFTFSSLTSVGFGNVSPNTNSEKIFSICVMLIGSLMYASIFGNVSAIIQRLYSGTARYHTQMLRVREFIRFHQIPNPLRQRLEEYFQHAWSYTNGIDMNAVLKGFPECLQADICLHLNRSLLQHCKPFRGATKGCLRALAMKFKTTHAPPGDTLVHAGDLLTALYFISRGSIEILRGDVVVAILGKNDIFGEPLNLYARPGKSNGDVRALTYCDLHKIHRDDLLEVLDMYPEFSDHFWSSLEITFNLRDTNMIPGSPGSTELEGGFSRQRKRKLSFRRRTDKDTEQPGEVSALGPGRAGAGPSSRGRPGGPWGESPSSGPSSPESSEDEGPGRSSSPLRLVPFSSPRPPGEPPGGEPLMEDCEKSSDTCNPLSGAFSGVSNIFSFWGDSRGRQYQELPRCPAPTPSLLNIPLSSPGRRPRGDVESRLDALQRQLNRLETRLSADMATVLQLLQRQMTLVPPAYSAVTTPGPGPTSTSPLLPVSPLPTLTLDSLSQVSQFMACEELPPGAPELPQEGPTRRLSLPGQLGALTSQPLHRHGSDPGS
EXPERIMENT_DESCRIPTION: Inhibition of hERG expressed in CHO cells Qpatch-clamp electrophysiology assay
QUANTITY_NAME: pIC50
In plain terms, pIC50 is the concentration in mol/L turned into minus its base-10 logarithm.

Ask: Query (compound): "O=c1oc2cc(O)ccc2c2oc3ccc4c(c3c12)CN(C1CCCC1)CO4" ; field requested: pIC50
Result: 6.28
